# testedTarget: human ether-à-go-go-related gene (hERG) potassium channel (human, UniProt Q12809);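 also: peak tail current of the secondary pulse compared with the same well before compound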
# Sequence (Q12809 whole entry, looked up): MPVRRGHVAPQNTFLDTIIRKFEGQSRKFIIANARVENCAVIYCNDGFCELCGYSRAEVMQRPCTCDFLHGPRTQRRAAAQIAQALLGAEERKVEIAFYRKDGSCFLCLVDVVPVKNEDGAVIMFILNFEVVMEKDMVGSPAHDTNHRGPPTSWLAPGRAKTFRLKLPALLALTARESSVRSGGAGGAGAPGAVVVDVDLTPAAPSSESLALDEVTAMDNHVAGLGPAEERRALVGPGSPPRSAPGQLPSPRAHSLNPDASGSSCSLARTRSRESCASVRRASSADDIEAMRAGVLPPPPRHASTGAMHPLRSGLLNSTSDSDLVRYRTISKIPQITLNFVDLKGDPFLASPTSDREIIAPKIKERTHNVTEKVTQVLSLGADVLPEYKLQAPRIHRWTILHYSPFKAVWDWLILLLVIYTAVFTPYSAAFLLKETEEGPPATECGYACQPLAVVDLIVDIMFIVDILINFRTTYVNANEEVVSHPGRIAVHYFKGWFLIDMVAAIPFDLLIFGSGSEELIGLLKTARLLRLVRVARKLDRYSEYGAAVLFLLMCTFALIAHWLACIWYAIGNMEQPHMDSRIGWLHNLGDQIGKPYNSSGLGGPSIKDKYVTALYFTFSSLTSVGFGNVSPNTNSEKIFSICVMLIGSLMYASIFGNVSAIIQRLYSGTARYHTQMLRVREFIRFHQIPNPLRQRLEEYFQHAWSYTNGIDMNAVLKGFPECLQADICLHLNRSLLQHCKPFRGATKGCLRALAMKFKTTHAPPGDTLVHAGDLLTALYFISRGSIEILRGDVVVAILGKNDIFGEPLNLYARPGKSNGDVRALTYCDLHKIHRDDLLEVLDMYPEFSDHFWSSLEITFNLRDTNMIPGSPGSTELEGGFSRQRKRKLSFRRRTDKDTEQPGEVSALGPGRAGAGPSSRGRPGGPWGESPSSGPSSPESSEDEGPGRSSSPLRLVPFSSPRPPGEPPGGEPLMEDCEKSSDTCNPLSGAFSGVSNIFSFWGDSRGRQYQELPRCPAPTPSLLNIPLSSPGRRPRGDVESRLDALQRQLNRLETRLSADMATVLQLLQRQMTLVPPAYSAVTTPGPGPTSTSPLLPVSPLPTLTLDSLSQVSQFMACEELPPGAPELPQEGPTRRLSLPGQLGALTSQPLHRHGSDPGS
# procedureText: primary screen, population patch clamp on CHO cells stably expressing hERG; higher = less effect of the substance
Among all 310,000 compounds or so, about 14,000 (4.5%) showed an effect of 50% or more. The effect is printed as a negative number. Shown is part of a subset that was picked to be rich in strong results.
outcomeMeasure: hERG current change (%, negative = inhibition) at 10uM (%)

[[record]]
compound = "COc1ccc(C(=O)ON=C2CCN(C)CC2)cc1.Cl"
testedtarget = "human ether-à-go-go-related gene (hERG) potassium channel (human, UniProt Q12809)"
valueunit = "%"
reportedmeasurement = 12.8

[[record]]
compound = "Cn1cc(/C=C2\\SC(=S)N(NC(=O)c3ccccc3)C2=O)c2ccccc21"
testedtarget = "human ether-à-go-go-related gene (hERG) potassium channel (human, UniProt Q12809)"
valueunit = "%"
reportedmeasurement = 10.6

[[record]]
compound = "Cc1ccc(C(=O)OC2CCN(c3ccc([N+](=O)[O-])cc3)CC2)cc1"
testedtarget = "human ether-à-go-go-related gene (hERG) potassium channel (human, UniProt Q12809)"
valueunit = "%"
reportedmeasurement = -1.78

[[record]]
compound = "O=C(NCc1ccccc1OC(F)(F)F)C1CCC(=O)N(Cc2cccc(F)c2)C1 (stereo not drawn)"
testedtarget = "human ether-à-go-go-related gene (hERG) potassium channel (human, UniProt Q12809)"
valueunit = "%"
reportedmeasurement = -12.4

[[record]]
compound = "Cc1ccc(C(=O)ON=C2CCN(c3ccc([N+](=O)[O-])cc3)CC2)cc1"
testedtarget = "human ether-à-go-go-related gene (hERG) potassium channel (human, UniProt Q12809)"
valueunit = "%"
reportedmeasurement = -60.9

[[record]]
compound = "O=C(NCc1ccc(Cl)s1)C1CCC(=O)N(CCc2cccc(F)c2)C1 (stereo not drawn)"
testedtarget = "human ether-à-go-go-related gene (hERG) potassium channel (human, UniProt Q12809)"
valueunit = "%"
reportedmeasurement = -60.2

[[record]]
compound = "O=C(NCc1cccc(F)c1)C1CCC(=O)N(CCc2cccc(F)c2)C1 (stereo not drawn)"
testedtarget = "human ether-à-go-go-related gene (hERG) potassium channel (human, UniProt Q12809)"
valueunit = "%"
reportedmeasurement = -30.7

[[record]]
compound = "Cc1ccc(CNC(=O)C2CCC(=O)N(CCc3cccc(F)c3)C2)cc1 (stereo not drawn)"
testedtarget = "human ether-à-go-go-related gene (hERG) potassium channel (human, UniProt Q12809)"
valueunit = "%"
reportedmeasurement = -38

[[record]]
compound = "COc1cccc(C(=O)Nc2c(C)n[nH]c2C)c1"
testedtarget = "human ether-à-go-go-related gene (hERG) potassium channel (human, UniProt Q12809)"
valueunit = "%"
reportedmeasurement = -0.143

[[record]]
compound = "Cc1ccccc1CNC(=O)C1CCC(=O)N(Cc2cccc(F)c2)C1 (stereo not drawn)"
testedtarget = "human ether-à-go-go-related gene (hERG) potassium channel (human, UniProt Q12809)"
valueunit = "%"
reportedmeasurement = -8.38

[[record]]
compound = "CCOc1ccccc1NC(=O)c1ccc(OCC)c([N+](=O)[O-])c1"
testedtarget = "human ether-à-go-go-related gene (hERG) potassium channel (human, UniProt Q12809)"
valueunit = "%"
reportedmeasurement = -10.3

[[record]]
compound = "CSc1ccc(CNC(=O)C2CCC(=O)N(CCc3cccc(F)c3)C2)cc1 (stereo not drawn)"
testedtarget = "human ether-à-go-go-related gene (hERG) potassium channel (human, UniProt Q12809)"
valueunit = "%"
reportedmeasurement = -77.1

[[record]]
compound = "COc1cccc(N=C2SC(C(=O)Nc3ccc(F)cc3)CC(=O)N2C)c1 (stereo not drawn)"
testedtarget = "human ether-à-go-go-related gene (hERG) potassium channel (human, UniProt Q12809)"
valueunit = "%"
reportedmeasurement = -11

[[record]]
compound = "O=C(Nc1ccc2c(c1)CCC2)c1ccccc1Br"
testedtarget = "human ether-à-go-go-related gene (hERG) potassium channel (human, UniProt Q12809)"
valueunit = "%"
reportedmeasurement = -12.9

[[record]]
compound = "CCOc1ccc(C(=O)NC(=S)Nc2ccccc2N2CCCCC2)cc1[N+](=O)[O-]"
testedtarget = "human ether-à-go-go-related gene (hERG) potassium channel (human, UniProt Q12809)"
valueunit = "%"
reportedmeasurement = 11.7

[[record]]
compound = "O=C(NCc1cccc(F)c1)C1CCC(=O)N(CC2CCCCC2)C1 (stereo not drawn)"
testedtarget = "human ether-à-go-go-related gene (hERG) potassium channel (human, UniProt Q12809)"
valueunit = "%"
reportedmeasurement = -9.08

[[record]]
compound = "O=Cc1cccc(OC(=O)Nc2ccccc2)c1"
testedtarget = "human ether-à-go-go-related gene (hERG) potassium channel (human, UniProt Q12809)"
valueunit = "%"
reportedmeasurement = 6.95

[[record]]
compound = "CSc1ccc(CNC(=O)C2CCC(=O)N(Cc3cccc(F)c3)C2)cc1 (stereo not drawn)"
testedtarget = "human ether-à-go-go-related gene (hERG) potassium channel (human, UniProt Q12809)"
valueunit = "%"
reportedmeasurement = -62.4

[[record]]
compound = "O=C(NCc1cccc(OC(F)(F)F)c1)C1CCC(=O)N(Cc2cccc(F)c2)C1 (stereo not drawn)"
testedtarget = "human ether-à-go-go-related gene (hERG) potassium channel (human, UniProt Q12809)"
valueunit = "%"
reportedmeasurement = -50.1

[[record]]
compound = "CCCN1CCN(S(=O)(=O)c2cn(C)nc2C)CC1"
testedtarget = "human ether-à-go-go-related gene (hERG) potassium channel (human, UniProt Q12809)"
valueunit = "%"
reportedmeasurement = 22

[[record]]
compound = "O=C(NCc1ccc(Cl)s1)C1CCC(=O)N(CCc2ccccn2)C1 (stereo not drawn)"
testedtarget = "human ether-à-go-go-related gene (hERG) potassium channel (human, UniProt Q12809)"
valueunit = "%"
reportedmeasurement = -10.1


Ref: paper PMC4336329
